// reported GI50 for each item listed
system: MCF7; experiment: NCI tumour cell line growth inhibition, 48 h
Calls of active or inactive are those of the source. Rule as the data show it: active = GI50 up to about 1.1 µM and inactive = higher.
ENDPOINT: GI50

- COMPOUND: "NC(=O)CCC(CCC(N)=O)(CCC(N)=O)[N+](=O)[O-]"
  RESULT: "> 100 µM (inactive)"
- COMPOUND: "CCOC(=O)c1ccc(C(=O)n2ccnc2)[nH]1"
  RESULT: "> 100 µM (inactive)"
- COMPOUND: "Nc1nc(Cl)c(C=O)c(NCC2(CO)CC(CCc3ccccc3)C2)n1 (centres undefined)"
  RESULT: "9.16 µM (inactive)"
- COMPOUND: "C/C(NC(=O)c1ccccc1)=C(/C(=O)c1ccccc1)[C@@H]1OC(C)(C)O[C@@H]1[C@H]1COC(C)(C)O1"
  RESULT: "40.8 µM (inactive)"
- COMPOUND: "O=C(N/N=C1\\C(=O)Nc2ccc(Br)cc21)/C(O)=C/C(=O)c1ccc(Cl)cc1"
  RESULT: "44.4 µM (inactive)"
- COMPOUND: "CCC1NC(=O)C1NC(=O)OC (centres undefined)"
  RESULT: "> 100 µM (inactive)"
- COMPOUND: "S=P1(N2CCCCC2)Oc2ccc3ccccc3c2-c2c(ccc3ccccc23)O1"
  RESULT: "> 85.3 µM (inactive)"
- COMPOUND: "O=CCOCc1cc2c(cc1Br)OCO2"
  RESULT: "20.3 µM (inactive)"
- COMPOUND: "O=[N+]([O-])c1cccnc1NCC1(CO)CC(Cc2ccccc2)C1 (centres undefined)"
  RESULT: "> 100 µM (inactive)"
- COMPOUND: "Cc1nc2ccc(S(=O)(=O)Nc3nccs3)cc2c(=O)n1NS(=O)(=O)c1nccs1"
  RESULT: "37.4 µM (inactive)"
- COMPOUND: "COc1ccc(/C=N/n2c(C)n[nH]c2=O)c(OC)c1"
  RESULT: "> 100 µM (inactive)"
- COMPOUND: "COC1C(OC(=O)/C=C/C=C/C=C/C=C\\C(=O)O)CCC2(CO2)C1C1(C)OC1CC=C(C)C (centres undefined)"
  RESULT: "> 100 µM (inactive)"
- COMPOUND: "COP(C)(=O)/C(Cc1ccccc1)=N\\O (centres undefined)"
  RESULT: "> 100 µM (inactive)"
- COMPOUND: "CC(C(=O)NCCNC(=O)CCC(=O)N(C)O)C(=O)NCCNC(=O)CCC(=O)N(C)O"
  RESULT: "> 100 µM (inactive)"

----------
Consider the following molecules and their measured GI50 readings.
system: SK-OV-3; experiment: NCI tumour cell line growth inhibition, 48 h
Active and inactive are the calls of the source. No stated cut-off is given here; in the data, active = GI50 up to about 1.1 µM and inactive = higher.

- MOLECULE: "C/C=C(\\C)C(=O)OC1C(C)=C2C(C1OC(=O)CCCC)C(C)(OC(C)=O)CC(OC(=O)CCCC)C1(O)C2OC(=O)C1(C)O (centres undefined)"
  GI50: "4.11 µM (inactive)"
- MOLECULE: "C/C(CC/C(C)=N/O)=N\\O"
  GI50: "> 100 µM (inactive)"
- MOLECULE: "COC(=O)CSc1nnc(-c2ccccc2)[nH]1"
  GI50: "> 100 µM (inactive)"
- MOLECULE: "CCOC(=O)CC1COc2ccc3c(c21)OCO3 (centres undefined)"
  GI50: "> 100 µM (inactive)"
- MOLECULE: "COC(=O)C(CC(=O)Nc1ccc(Cl)c(Cl)c1)C(=O)C(=O)NC1C2CC3CC(C2)CC1C3 (centres undefined)"
  GI50: "> 100 µM (inactive)"
- MOLECULE: "CC1=NC(=O)C(C)(c2ccccc2)N1CCc1ccccc1 (centres undefined)"
  GI50: "> 100 µM (inactive)"
- MOLECULE: "CCN(CC)c1ccc(/C=C2/C[N+](C)(C)C/C(=C/c3ccc(N(CC)CC)cc3)C2=O)cc1"
  GI50: "9.29 µM (inactive)"
- MOLECULE: "O=S(=O)([N-]c1nc2ccccc2nc1-[n+]1ccccc1)c1ccccc1"
  GI50: "> 100 µM (inactive)"
- MOLECULE: "CS(=O)(=O)c1n[nH]c2nc(O)nc(O)c12"
  GI50: "> 10 µM (inactive)"
- MOLECULE: "Oc1cc2c3c(c1)CCCN3CCC2"
  GI50: "> 10 µM (inactive)"
- MOLECULE: "O=c1ccn(CC2(CO)CCC2)c(=O)[nH]1"
  GI50: "> 100 µM (inactive)"
- MOLECULE: "C[C@H](CCC1SC1(C)C)C1CCC2(C)C3=C(CC[C@]12C)[C@@]1(C)CC[C@H](O)C(C)(C)C1CC3 (some centres undefined)"
  GI50: "> 100 µM (inactive)"
- MOLECULE: "COC(=O)/C(=N/Nc1cccc(Cl)c1)C(C(=O)C(=O)Nc1cccc(Cl)c1C)c1nc2ccccc2nc1C (centres undefined)"
  GI50: "> 100 µM (inactive)"
- MOLECULE: "C(=C/c1nc2ccccc2o1)/c1ccc2c(c1)OCO2"
  GI50: "27.2 µM (inactive)"
- MOLECULE: "O=C(Nc1ccc2[nH]c(C(=O)N3CC(CCl)c4ccc([N+](=O)[O-])cc43)cc2c1)c1cc2ccccc2o1 (centres undefined)"
  GI50: "> 1100 µM (inactive)"
- MOLECULE: "CC(C)(Oc1ccccc1)C(=O)Sc1c(-c2ccccc2)c(=O)n(-c2ccccc2)c(=S)n1-c1ccccc1"
  GI50: "26.7 µM (inactive)"
- MOLECULE: "COc1ccc2c(c1)OCCC1=C2SCC2(C)CCN=C12 (centres undefined)"
  GI50: "> 100 µM (inactive)"
- MOLECULE: "CCOC(=O)c1cccnc1C(OC(C)=O)OC(C)=O"
  GI50: "> 100 µM (inactive)"
- MOLECULE: "COc1ccc([C@@]23CCC(=O)C[C@@H]2N(C)CC3)cc1OC"
  GI50: "> 100 µM (inactive)"

----------
system: HOP-62; experiment: NCI tumour cell line growth inhibition, 48 h
Calls of active or inactive are those of the source. Rule as the data show it: active = GI50 up to about 1.1 µM and inactive = higher.
Possible outcomes: active, inactive

- COMPOUND: "C=C(NC(=O)C(=C)NC(=O)c1ccc2c(n1)-c1coc(n1)C(=C)NC(=O)C(=C)NC(=O)c1nc(oc1C)C(=C)NC(=O)C(C(C)(C)O)NC(=O)C(=C)NC(=O)c1coc(n1)/C(=C/C)NC(=O)[C@H]([C@@H](C)O)NC(=O)c1csc-2n1)C(N)=O (stereo not given in full)"
  ASSIGNED CLASS: "inactive"
- COMPOUND: "NC(=O)CN1CCN(c2nc(N3CCCC3)c3nc(Cl)c(NCc4ccccc4)nc3n2)CC1"
  ASSIGNED CLASS: "active"
- COMPOUND: "CNc1nc(N)cc(O)n1"
  ASSIGNED CLASS: "inactive"
- COMPOUND: "CS(=O)(=O)OCC1CN(S(C)(=O)=O)c2cc(O)ccc21 (stereo not given)"
  ASSIGNED CLASS: "inactive"
- COMPOUND: "O=C(NC1=C(Cl)C(=O)c2ccccc2C1=O)c1ccccc1"
  ASSIGNED CLASS: "inactive"
- COMPOUND: "C[C@@H](C[C@H]1OC(C)(C)O[C@@H]1C(C)(C)O)[C@H]1CC=C2[C@]3(C)[C@H](O)C[C@H]4C(C)(C)[C@H](O)CC[C@]4(C)[C@H]3CC[C@]21C"
  ASSIGNED CLASS: "inactive"
- COMPOUND: "CC[C@]12C=CCN3CCC4(c5cc([C@@]6(C(=O)OC)CC7CN(CCc8c6[nH]c6ccccc86)CC6CCCCC67)c(OC)cc5N(C)C4[C@](O)(C(=O)OC)C1OC(C)=O)[C@@H]32 (stereo not given in full)"
  ASSIGNED CLASS: "active"
- COMPOUND: "CC(C)=Cc1cc(C(=O)Nc2ccc(Cl)c(Cl)c2)nc(N)n1"
  ASSIGNED CLASS: "inactive"
- COMPOUND: "O=CCOCc1cc2c(cc1Br)OCO2"
  ASSIGNED CLASS: "inactive"
- COMPOUND: "COc1cc2c(cc1O)c(O)cc1c3cc(OC)c(OC)cc3c[n+](C)c21"
  ASSIGNED CLASS: "inactive"

----------
system: UACC-62; experiment: NCI tumour cell line growth inhibition, 48 h
Calls of active or inactive are those of the source. Cut-off read from the data, not from the text of the source: active = GI50 up to about 1.1 µM and inactive = higher. Where a SMILES comes first, the peptide text is derived from it. The star is where a group is joined. Boc = CC(C)(C)OC(=O)*
Outcome codes: 1.0 for active, 0.0 for inactive

- MOLECULE: "O=C1C2c3[nH]c4ccccc4c3C3CCCC3C2C(=O)N1c1ccccc1 (stereo unspecified)"
  ASSIGNED CLASS: 0.0
- MOLECULE: "CCOC(=O)N1CCC(N[C@@H]2c3cc4c(cc3[C@@H](c3cc(OC)c(O)c(OC)c3)[C@H]3C(=O)OC[C@@H]32)OCO4)CC1"
  ASSIGNED CLASS: 1.0
- MOLECULE: "CNc1ccc2c(c1)[C@@]1(C)c3ccccc3[C@@H](C2)N1C"
  ASSIGNED CLASS: 0.0
- MOLECULE: "O=C1c2ccccc2C(=O)c2c1ccc(O)c2O"
  ASSIGNED CLASS: 0.0
- MOLECULE: "O=C(OCc1ccccc1)N1N=NC2C3CC(OCc4ccccc4)(OCc4ccccc4)C(O3)C21 (stereo unspecified)"
  ASSIGNED CLASS: 0.0
- MOLECULE: "Cc1nc2ccc(S(=O)(=O)Nc3nccs3)cc2c(=O)n1NS(=O)(=O)c1nccs1"
  ASSIGNED CLASS: 0.0
- MOLECULE: "CCCCCCCC(=O)OCC1OC(n2cc(F)c(=O)[nH]c2=O)C(NC(=O)OCc2ccccc2)C(OC(=O)CCCCCCC)C1O (stereo unspecified)"
  ASSIGNED CLASS: 0.0
- MOLECULE: "COc1ccc(OC)c(/C=C/NC=O)c1"
  ASSIGNED CLASS: 0.0
- MOLECULE: "CCOC(=O)C(NC(=O)c1ccccc1)(Nc1ccc(Cl)cc1C(F)(F)F)C(F)(F)F (stereo unspecified)"
  ASSIGNED CLASS: 0.0
- MOLECULE: "NCCNC(=O)c1cccc2cc3ccccc3nc12"
  ASSIGNED CLASS: 0.0
- MOLECULE: "CS(=O)(=O)c1n[nH]c2nc(O)nc(O)c12"
  ASSIGNED CLASS: 0.0
- MOLECULE: "C/C(=N\\NC(=O)c1cccnc1)c1cccc(/C(C)=N/NC(=O)c2cccnc2)n1"
  ASSIGNED CLASS: 0.0
- MOLECULE: "O=C(O)c1oc(C(=O)O)c(C(=O)O)c1C(=O)O"
  ASSIGNED CLASS: 0.0
- MOLECULE: "O=C1C(Cl)=C(N2CCSCC2)C(=O)c2c(O)ccc(O)c21"
  ASSIGNED CLASS: 1.0
- MOLECULE: "O=C(CC(C(=O)c1cccs1)c1ccc2c(c1)OCO2)c1ccccc1 (stereo unspecified)"
  ASSIGNED CLASS: 0.0
- MOLECULE: "CC[C@H]1C=CCC[C@@]2(C[C@@H]3CC[C@@H]4[C@H](C(=O)OCCCCCCCCCCCCCCCC(=O)N(CCCN)CCCCN)[C@]5(CCC[C@@H](C)O5)NC(=[N+]34)N2)O1"
  ASSIGNED CLASS: 1.0
- MOLECULE: "COC(=O)[C@H](Cc1ccc(O)cc1)NC(=O)[C@H](Cc1ccc(O)cc1)NC(=O)OC(C)(C)C (Boc-Tyr-Tyr-OMe)"
  ASSIGNED CLASS: 0.0
- MOLECULE: "CN1CCN(C2=C(Cl)C3(OCCS3)C(F)(F)C2(F)F)CC1 (stereo unspecified)"
  ASSIGNED CLASS: 0.0
- MOLECULE: "O=C1NC2OCC(O)C(O1)C2O (stereo unspecified)"
  ASSIGNED CLASS: 0.0
- MOLECULE: "COC(=O)[C@]12CC[C@H]3CC[C@H]([C@H]31)[C@H](c1ccccc1)N2"
  ASSIGNED CLASS: 0.0
- MOLECULE: "Cc1ccccc1N1C(=O)C2C=CC(n3[nH]c(=O)n(Cc4ccccc4)c3=O)CC2C1=O (stereo unspecified)"
  ASSIGNED CLASS: 0.0
